Answer each item with its documented IC50.
test system: human gastric cancer strain GSU; format: cell-based
Answers are plain numbers, in nM.

INSERT INTO measurements (smiles_code, measurement) VALUES
  ('CCO[C@@H]1C[C@H]2C(=O)N(C)C3(CCC3)C(=O)N(C)[C@@H](C3CCCC3)C(=O)N(C)[C@H](C(=O)N(C)C)CC(=O)N(C)[C@@H](CC(C)C)C(=O)N[C@@H]([C@@H](C)CC)C(=O)N(C)CC(=O)N(C)[C@H]3C/C=C\CCN(C3=O)[C@@H](Cc3ccc(C(F)(F)F)cc3)C(=O)N(C)CC(=O)N[C@@H](CCc3cc(F)c(C(F)(F)F)c(F)c3)C(=O)N2C1', 0.6),
  ('CCO[C@@H]1C[C@H]2C(=O)OC3(CCC3)C(=O)N(C)[C@@H](C3CCCC3)C(=O)N(C)[C@H](C(=O)N(C)C)CC(=O)N(C)[C@@H]([C@@H](C)OC)C(=O)N[C@@H]([C@@H](C)CC)C(=O)N(C)CC(=O)N(C)[C@H]3C/C=C\CCN(C3=O)[C@@H](Cc3ccc(C(F)(F)F)cc3)C(=O)N(C)CC(=O)N[C@@H](CCc3ccc(C(F)(F)F)c(OC)c3)C(=O)N2C1', 0.6);

Now turn to the next compound.
Input line: Fetch value of IC50 on human gastric cancer strain GSU for `CCO[C@@H]1C[C@H]2C(=O)NC3(CCCC3)C(=O)N(C)[C@@H](C3CCCC3)C(=O)N(C)[C@H](C(=O)N(C)C)CC(=O)N(C)[C@@H](CC(C)C)C(=O)N[C@@H]([C@@H](C)CC)C(=O)N(C)CC(=O)N(C)[C@H]3C/C(F)=C\CCN(C3=O)[C@@H](Cc3ccc(C(F)(F)F)cc3)C(=O)N(C)CC(=O)N[C@@H](CCc3cc(F)c(C(F)(F)F)c(F)c3)C(=O)N2C1` .
Output line: 1.2

* * *

biological target: GDP-bound KRAS wild-type protein (Homo sapiens); assay: Binding to KRAS by surface plasmon resonance (SPR), dissociation constant KD; settings: 1:1 binding model
Sequence (P01116 1-188 isoform P01116-2): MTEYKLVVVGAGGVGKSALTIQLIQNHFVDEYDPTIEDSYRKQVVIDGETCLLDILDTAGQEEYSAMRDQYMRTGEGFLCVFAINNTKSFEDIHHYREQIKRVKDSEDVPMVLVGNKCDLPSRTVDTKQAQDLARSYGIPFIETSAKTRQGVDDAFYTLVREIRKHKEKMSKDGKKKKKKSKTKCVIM
Answer each item with its documented pKd.
Give bare numbers, as −log10 of the molar value.

Some compounds with known pKd results, for comparison:
INSERT INTO results (smiles_code, measurement) VALUES
  ('CC[C@H](C)[C@@H]1NC(=O)[C@H](CC(C)C)N(C)C(=O)C[C@@H](C(=O)N(C)C)N(C)C(=O)[C@H](C2CCCC2)N(C)C(=O)C2(CC(C)(C)C2)NC(=O)[C@@H]2C[C@H](C)CN2C(=O)[C@H](CCc2ccc(C(F)(F)F)c(OC)c2)NC(=O)CN(C)C(=O)[C@H](Cc2ccc(C)cc2)N2CC/C=C\C[C@@H](C2=O)N(C)C(=O)[C@@H]2CCCN2C1=O', 9.32),
  ('CCC[C@H]1C(=O)N[C@@H]([C@@H](C)CC)C(=O)N(C2CC2)CC(=O)N(C)[C@H]2C/C=C\CCN(C2=O)[C@@H](Cc2ccc(C(F)F)cc2)C(=O)N(C)CC(=O)N[C@@H](CCc2cc(F)c(C(F)(F)F)c(F)c2)C(=O)N2C[C@H](OCC)C[C@H]2C(=O)NC2(CC(C)(C)C2)C(=O)N(C)[C@@H](C(CC)CC)C(=O)N(C)[C@H](C(=O)N(C)C)CC(=O)N1C', 9.19);

Input line: For the compound `CCO[C@@H]1C[C@H]2C(=O)NC3(CC(C)(C)C3)C(=O)N(C)[C@@H](C3CCCC3)C(=O)N(C)[C@H](C(=O)N(C)C)CC(=O)N(C)[C@@H]([C@@H](C)OC)C(=O)N[C@@H]([C@@H](C)CC)C(=O)N(C)CC(=O)N(C)[C@H]3C/C=C\CCN(C3=O)[C@@H](Cc3ccc(C(F)(F)F)cc3)C(=O)N(C)CC(=O)N[C@@H](CCc3ccc(C(F)(F)F)c(Cl)c3)C(=O)N2C1` , report pKd.
Output line: 10.40

* * *

test system: human lung cancer strain NCI-H441; experiment: NCI-H441 cell proliferation inhibitory activity (CellTiter-Glo, 4 days); type: cell-based; conditions: NCI-H441 cells, 4 days, read-out: NCl-H441 IC50
Measurement Label: IC50 (nM)
One number for each entry, in nM.

INSERT INTO measurements (smiles_code, measurement) VALUES
  ('CC[C@H](C)[C@@H]1NC(=O)[C@H](COC)N(C)C(=O)C[C@@H](C(=O)N(C)C)N(C)C(=O)[C@H](C2CCCC2)N(C)C(=O)C2(CC(C)(C)C2)NC(=O)[C@@H]2C[C@@H](OC3CCCC3)CN2C(=O)[C@H](CCc2cc(F)c(C(F)(F)F)c(F)c2)NC(=O)CN(C)C(=O)[C@H](Cc2ccc(C)cc2)N2CC/C=C\C[C@@H](C2=O)N(C)C(=O)CN(C2CC2)C1=O', 33.4);

Could I get IC50 for every one of these entries?
1. CCC[C@H]1C(=O)N[C@@H]([C@@H](C)CC)C(=O)N2CCC[C@H]2C(=O)N(C)[C@H]2C/C=C\CCN(C2=O)[C@@H](Cc2ccc(C)cc2)C(=O)N(C)CC(=O)N[C@@H](CCc2ccc(C(F)(F)F)c(OC)c2)C(=O)N2CC[C@H](OC)[C@H]2C(=O)N(C)C2(CCC2)C(=O)N(C)[C@@H](C2CCCC2)C(=O)N(C)[C@H](C(=O)N(C)C)CC(=O)N1C
2. CCC[C@H]1C(=O)N[C@@H]([C@@H](C)CC)C(=O)N(C)CC(=O)N(C)[C@H]2C/C=C\CCN(C2=O)[C@@H](Cc2ccc(C(F)(F)F)cc2)C(=O)N(C)CC(=O)N[C@@H](CCc2cc(F)c(C(F)(F)F)c(F)c2)C(=O)N2CC3(CC3)C[C@H]2C(=O)N(C)C2(CCC2)C(=O)N(C)[C@@H](C(CC)CC)C(=O)N(C)[C@H](C(=O)N(C)C)CC(=O)N1C
3. CCOC[C@H]1C(=O)N[C@@H]([C@@H](C)CC)C(=O)N(C2CC2)CC(=O)N(C)[C@@H]2C/C=C\CCN(C2=O)[C@@H](Cc2ccc(C)cc2)C(=O)N(C)CC(=O)N[C@@H](CCc2ccc(C(F)(F)F)c(OC)c2)C(=O)N2C[C@H](OCC)C[C@@H]2C(=O)NC2(CC(C)(C)C2)C(=O)N(C)[C@H](CC2CCC2)C(=O)N(C)[C@H](C(=O)N(C)C)CC(=O)N1C
4. CCC[C@H]1C(=O)N[C@@H](CC(C)C)C(=O)N(CCOC)CC(=O)N(C)[C@H]2C/C=C\CCN(C2=O)[C@@H](Cc2ccc(C)cc2)C(=O)N(C)CC(=O)N[C@@H](CCc2ccc(C(F)(F)F)c(OC)c2)C(=O)N2C[C@H](OCC)C[C@H]2C(=O)NC2(CCC2)C(=O)N(C)[C@@H](C2CCCC2)C(=O)N(C)[C@H](C(=O)N(C)C)CC(=O)N1C

Output line:
1. 5.3
2. 8.4
3. 144
4. 394

Input line: For the molecule `CCC[C@H]1C(=O)N[C@@H]([C@@H](C)CC)C(=O)N(C2CC2)CC(=O)N(C)[C@H]2C/C=C\CCN(C2=O)[C@@H](Cc2ccc(C(F)F)cc2)C(=O)N(C)CC(=O)N[C@@H](CCc2cc(F)c(C(F)(F)F)c(F)c2)C(=O)N2C[C@H](OC(C)C)C[C@H]2C(=O)NC2(CC(C)(C)C2)C(=O)N(C)[C@@H](C(CC)CC)C(=O)N(C)[C@H](C(=O)N(C)C)CC(=O)N1C` , report IC50.
Output line: 64

* * *

system: human lung cancer strain NCI-H441; format: cell-based
Where a SMILES comes first, the peptide text is derived from it. Bridges are numbered along the chain shown (N, C = ends). [ ]: non-standard residue; d: D form. The star is where a group is joined. hPhe(3-Cl-4-CF3) = N[C@@H](CCc1ccc(C(F)(F)F)c(Cl)c1)C(=O)O; NPrPhe(4-CF3) = CCCN[C@@H](Cc1ccc(C(F)(F)F)cc1)C(=O)O; NPrPhe(4-Me) = CCCN[C@@H](Cc1ccc(C)cc1)C(=O)O; NMeGly(cPent) = CN[C@H](C(=O)O)C1CCCC1; Pro(4,4-Me2) = CC1(C)CN[C@H](C(=O)O)C1; NMeD = CN[C@@H](CC(=O)O)C(=O)O; NMeL = CN[C@@H](CC(C)C)C(=O)O; Morpholide = C1CN(*)CCO1; Ac5c = NC1(C(=O)O)CCCC1; Aze = O=C(O)[C@@H]1CCN1; NEtG = CCNCC(=O)O; Sar = CNCC(=O)O
Measurement Label: pIC50
Answers are plain numbers, as −log10 of the molar value.

Some molecules with known pIC50 results, for comparison:
INSERT INTO results (molecule, measurement_target, measurement) VALUES
  ('CCCN1C(=O)CN(C)C(=O)[C@@H]2CCN2C(=O)[C@H]([C@@H](C)CC)NC(=O)[C@H](CC(C)C)N(C)C(=O)C[C@@H](C(=O)N2CCOCC2)N(C)C(=O)[C@H](C2CCCC2)N(C)C(=O)C2(CCCC2)NC(=O)[C@@H]2CC(C)(C)CN2C(=O)[C@H](CCc2ccc(C(F)(F)F)c(Cl)c2)NC(=O)CN(C)C(=O)[C@@H]1Cc1ccc(C(F)(F)F)cc1 [PP0452] ([NMeL]I[Aze][Sar][NPrPhe(4-CF3)][Sar][hPhe(3-Cl-4-CF3)][Pro(4,4-Me2)][Ac5c][NMeGly(cPent)][NMeD]-Morpholide; lactam N-11)', 'human lung cancer strain NCI-H441', 7.47),
  ('CCC[C@H]1C(=O)N[C@@H]([C@@H](C)CC)C(=O)N(C)CC(=O)N(C)[C@H]2C/C=C\CCN(C2=O)[C@@H](Cc2ccc(C)cc2)C(=O)N(C)CC(=O)N[C@@H](CCc2cc(F)c(C(F)(F)F)c(F)c2)C(=O)N2C[C@H](C)C[C@H]2C(=O)N(C)C2(CCC2)C(=O)N(C)[C@@H](C2CCCC2)C(=O)N(C)[C@H](C(=O)N(C)C)CC(=O)N1C [PP1799]', 'human lung cancer strain NCI-H441', 8.12),
  ('CCO[C@@H]1C[C@H]2C(=O)NC3(CCC3)C(=O)N(C)[C@@H](C3CCCC3)C(=O)N(CCC3CCC3)[C@H](C(=O)N(C)C)CC(=O)N(C)[C@@H](CC)C(=O)N[C@@H]([C@@H](C)CC)C(=O)N(C)CC(=O)N(C)[C@H]3CCCCN(C3=O)[C@@H](Cc3ccc(C(F)(F)F)cc3)C(=O)N(C)CC(=O)N[C@@H](CCc3cc(F)c(C(F)(F)F)c(F)c3)C(=O)N2C1 [PP0645]', 'human lung cancer strain NCI-H441', 7.92);

Now turn to the next molecule.
Input line: For the molecule CCCN1C(=O)CN(CC)C(=O)CN(C)C(=O)[C@H]([C@@H](C)CC)NC(=O)[C@H](CC(C)C)N(C)C(=O)C[C@@H](C(=O)N2CCOCC2)N(C)C(=O)[C@H](C2CCCC2)N(C)C(=O)C2(CCCC2)NC(=O)[C@@H]2CCCN2C(=O)[C@H](CCc2ccc(C(F)(F)F)c(Cl)c2)NC(=O)CN(CC)C(=O)[C@@H]1Cc1ccc(C)cc1 [PP0069] ([NMeL]I[Sar][NEtG][NPrPhe(4-Me)][NEtG][hPhe(3-Cl-4-CF3)]P[Ac5c][NMeGly(cPent)][NMeD]-Morpholide; lactam N-11) , report pIC50.
Output line: 7.40
